- Test system: KRAS patient-derived spheroids with HUVEC/MSC, viability
- assay comment: Anticancer human tumor 941728-121-R-J1-PDC patient-derived lung adenocarcinoma cell line growth inhibition [KRAS2]
- protocol conditions: second compound 3.16 µM; first compound 0.0316 µM; stronger effect = lower value
- Text: Multicellular complex tumor spheroid response to RAS pathway inhibitors in combination with a targeted agents in patient-derived cell lines with oncogenic KRAS variants from multiple cancer types A high-throughput screen of multi-cell type tumor spheroids was designed to identify active combinations of targeted small molecules and KRAS pathway inhibitors. […] Compounds. […] If the clinical Cmax for an agent had not been determined, the highest concentration tested was 10 microM. […]
assay endpoint: viability, T/C (%)
Quick reminder: number only, in %, skip the unit.

Record request: viability, T/C value, item CN(C)C/C=C/C(=O)Nc1cc2c(Nc3ccc(F)c(Cl)c3)ncnc2cc1O[C@H]1CCOC1 + C=CC(=O)N1CCN(c2nc(=O)n(-c3c(C)ccnc3C(C)C)c3nc(-c4c(O)cccc4F)c(F)cc23)C(C)C1
18.9

State the recorded viability, T/C for this entry: CC1COCCN1c1cc(-c2ccnn2C)c2ccnc(-c3ccn[nH]3)c2n1 (stereo not drawn) + COc1cc2nc(C)nc(NC(C)c3cc(N)cc(C(F)(F)F)c3)c2cc1OC1CCOC1
32

Entry COc1cc(Nc2ncc3c(n2)-c2ccc(Cl)cc2C(c2c(F)cccc2OC)=NC3)ccc1C(=O)O + C=CC(=O)N1CCN(c2nc(=O)n(-c3c(C)ccnc3C(C)C)c3nc(-c4c(O)cccc4F)c(F)cc23)C(C)C1 has what viability, T/C?
25.5

---

- Tested on: KRAS patient-derived spheroids with HUVEC/MSC, viability
- assay comment: Anticancer human tumor 941728-121-R-J1-PDC cell line growth inhibition [KRAS2];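 further: spheroids exposed to agents for seven days before readout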
- protocol conditions: compound alone; run of 07/19/2021
Answer each item with its documented IC50.

May I ask what IC50 has been recorded for CC1OCC2(CCN(c3cnc(Sc4ccnc(N)c4Cl)c(N)n3)CC2)C1N (centres undefined) ?
< 100 nM

For the compound C=CC(=O)N1CCN(c2nc(=O)n(-c3c(C)ccnc3C(C)C)c3nc(-c4c(O)cccc4F)c(F)cc23)C(C)C1 (centres undefined) , what IC50 is on record?
< 100 nM

Would you mind telling me what IC50 value was observed for C=CC(=O)N1CCN(c2nc(OCC3CCCN3C)nc3c2CCN(c2cccc4cccc(C)c24)C3)CC1CC#N (centres undefined) ?
< 31.6 nM

Sample CNCc1ccccc1-c1csc(C(C)Nc2nc(C)nc3cc(OC)c(OC)cc23)c1 (centres undefined) — what was its IC50?
112 nM [middle of 5 runs]

---

- System: KRAS patient-derived spheroids with HUVEC/MSC, viability
- assay comment: Anticancer human tumor 941728-121-R-J1-PDC cell line growth inhibition [KRAS2];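 further: spheroids exposed to agents for seven days before readout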
- protocol conditions: second compound 10 µM; first compound 0.1 µM; stronger effect = lower value
assay endpoint: viability, T/C (%)
Report as a plain number; the unit % is understood.

Any idea what its viability, T/C is? The compound is CC(C)NCC(C(=O)N1CCN(c2ncnc3c2C(C)CC3O)CC1)c1ccc(Cl)cc1 (stereo not given) + C=CC(=O)N1CCN(c2nc(=O)n(-c3c(C)ccnc3C(C)C)c3nc(-c4c(O)cccc4F)c(F)cc23)C(C)C1
21.5

Give the measured viability, T/C of CC1COCCN1c1cc(-c2ccnn2C)c2ccnc(-c3ccn[nH]3)c2n1 (stereo not given) + CNCc1ccccc1-c1csc(C(C)Nc2nc(C)nc3cc(OC)c(OC)cc23)c1 .
0.25

# query: viability, T/C of entry CC(=O)OC12COC1CC(O)C1(C)C(=O)C(O)C3=C(C)C(OC(=O)C(O)C(NC(=O)OC(C)(C)C)c4ccccc4)CC(O)(C(OC(=O)c4ccccc4)C21)C3(C)C (stereo not given) + CNCc1ccccc1-c1csc(C(C)Nc2nc(C)nc3cc(OC)c(OC)cc23)c1
0.1

Entry CC1OCC2(CCN(c3cnc(Sc4ccnc(N)c4Cl)c(N)n3)CC2)C1N (stereo not given) + CNCc1ccccc1-c1csc(C(C)Nc2nc(C)nc3cc(OC)c(OC)cc23)c1 has what viability, T/C?
0.12

# lookup: viability, T/C of CCN1CCN(Cc2ccc(Nc3ncc(F)c(-c4cc(F)c5nc(C)n(C(C)C)c5c4)n3)nc2)CC1 + C=CC(=O)N1CCN(c2nc(=O)n(-c3c(C)ccnc3C(C)C)c3nc(-c4c(O)cccc4F)c(F)cc23)C(C)C1
29.8

Form field: reported viability, T/C of O=C(c1cc(Cc2n[nH]c(=O)c3ccccc23)ccc1F)N1CCN(C(=O)C2CC2)CC1 + C=CC(=O)N1CCN(c2nc(=O)n(-c3c(C)ccnc3C(C)C)c3nc(-c4c(O)cccc4F)c(F)cc23)C(C)C1
43.3

What viability, T/C value was documented for this compound, Cn1nccc1Nc1nccc(-c2cc3c(s2)C(C)(C)N(CCN2CCOCC2)C3=O)n1 + COc1cc2nc(C)nc(NC(C)c3cc(N)cc(C(F)(F)F)c3)c2cc1OC1CCOC1 ?
30.2

// query viability, T/C value for entry CC(C)NCC(C(=O)N1CCN(c2ncnc3c2C(C)CC3O)CC1)c1ccc(Cl)cc1 (stereo not given) + CNCc1ccccc1-c1csc(C(C)Nc2nc(C)nc3cc(OC)c(OC)cc23)c1
0.15

Any idea what its viability, T/C is? The compound is CC(C)n1nc(-c2ccc3oc(N)nc3c2)c2c(N)ncnc21 + COc1cc2nc(C)nc(NC(C)c3cc(N)cc(C(F)(F)F)c3)c2cc1OC1CCOC1
4.65

What value of viability, T/C has been recorded for this entry: CC1(C)CCC(CN2CCN(c3ccc(C(=O)NS(=O)(=O)c4ccc(NCC5CCOCC5)c([N+](=O)[O-])c4)c(Oc4cnc5[nH]ccc5c4)c3)CC2)=C(c2ccc(Cl)cc2)C1 + CNCc1ccccc1-c1csc(C(C)Nc2nc(C)nc3cc(OC)c(OC)cc23)c1
0.11

---

Provide the reported viability, T/C of each item.
- Test system: KRAS patient-derived spheroids with HUVEC/MSC, viability
- assay comment: Anticancer human tumor 941728-121-R-J1-PDC cell line growth inhibition [KRAS2];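 further: spheroids exposed to agents for seven days before readout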
- protocol conditions: second compound 10 µM; first compound 0.316 µM; stronger effect = lower value

KRAS patient-derived spheroids with HUVEC/MSC, viability / viability, T/C / CCNC(=O)CC1N=C(c2ccc(Cl)cc2)c2cc(OC)ccc2-n2c(C)nnc21 (stereo not drawn) + C=CC(=O)N1CCN(c2nc(=O)n(-c3c(C)ccnc3C(C)C)c3nc(-c4c(O)cccc4F)c(F)cc23)C(C)C1 : value?
23.4%

Quick check: viability, T/C on KRAS patient-derived spheroids with HUVEC/MSC, viability, item COC(=O)c1ccc2c(C(=Nc3ccc(N(C)C(=O)CN4CCN(C)CC4)cc3)c3ccccc3)c(O)[nH]c2c1 + COc1cc2nc(C)nc(NC(C)c3cc(N)cc(C(F)(F)F)c3)c2cc1OC1CCOC1 ?
21.1%

Param readout = viability, T/C; param system = KRAS patient-derived spheroids with HUVEC/MSC, viability; param query = COc1cc(Nc2ncc3c(n2)-c2ccc(Cl)cc2C(c2c(F)cccc2OC)=NC3)ccc1C(=O)O + C=CC(=O)N1CCN(c2nc(=O)n(-c3c(C)ccnc3C(C)C)c3nc(-c4c(O)cccc4F)c(F)cc23)C(C)C1 ; response: value
35.2%

---

- Tested on: KRAS patient-derived spheroids with HUVEC/MSC, viability
- assay comment: Anticancer human tumor 941728-121-R-J1-PDC cell line growth inhibition [KRAS2];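 further: spheroids exposed to agents for seven days before readout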
- protocol conditions: second compound 3.16 µM; first compound 0.0316 µM; stronger effect = lower value
For each entry below, report its viability, T/C value.
Field: numeric (%). Do not append units.

Record lookup: for KRAS patient-derived spheroids with HUVEC/MSC, viability, what viability, T/C belongs to CC(=O)OC12COC1CC(O)C1(C)C(=O)C(O)C3=C(C)C(OC(=O)C(O)C(NC(=O)OC(C)(C)C)c4ccccc4)CC(O)(C(OC(=O)c4ccccc4)C21)C3(C)C (stereo not given) + CNCc1ccccc1-c1csc(C(C)Nc2nc(C)nc3cc(OC)c(OC)cc23)c1 ?
0.11

Request: viability, T/C, test system KRAS patient-derived spheroids with HUVEC/MSC, viability, entry O=C(c1cc(Cc2n[nH]c(=O)c3ccccc23)ccc1F)N1CCN(C(=O)C2CC2)CC1 + COc1cc2nc(C)nc(NC(C)c3cc(N)cc(C(F)(F)F)c3)c2cc1OC1CCOC1
47.7

Please tell me: viability, T/C of O=C(c1cc(Cc2n[nH]c(=O)c3ccccc23)ccc1F)N1CCN(C(=O)C2CC2)CC1 + CNCc1ccccc1-c1csc(C(C)Nc2nc(C)nc3cc(OC)c(OC)cc23)c1 , system KRAS patient-derived spheroids with HUVEC/MSC, viability?
0.61

Please provide the recorded viability, T/C for CC1COCCN1c1cc(-c2ccnn2C)c2ccnc(-c3ccn[nH]3)c2n1 (stereo not given) + CC1OCC2(CCN(c3cnc(Sc4ccnc(N)c4Cl)c(N)n3)CC2)C1N , tested on KRAS patient-derived spheroids with HUVEC/MSC, viability.
25.3

Field: viability, T/C (KRAS patient-derived spheroids with HUVEC/MSC, viability). Entry: Cn1nccc1Nc1nccc(-c2cc3c(s2)C(C)(C)N(CCN2CCOCC2)C3=O)n1 + CNCc1ccccc1-c1csc(C(C)Nc2nc(C)nc3cc(OC)c(OC)cc23)c1
1.11

What is its viability, T/C for KRAS patient-derived spheroids with HUVEC/MSC, viability? Entry: Cn1nccc1Nc1nccc(-c2cc3c(s2)C(C)(C)N(CCN2CCOCC2)C3=O)n1 + CC1OCC2(CCN(c3cnc(Sc4ccnc(N)c4Cl)c(N)n3)CC2)C1N
33.5

Quick check: viability, T/C on KRAS patient-derived spheroids with HUVEC/MSC, viability, item CCNC(=O)CC1N=C(c2ccc(Cl)cc2)c2cc(OC)ccc2-n2c(C)nnc21 (stereo not given) + C=CC(=O)N1CCN(c2nc(=O)n(-c3c(C)ccnc3C(C)C)c3nc(-c4c(O)cccc4F)c(F)cc23)C(C)C1 ?
30.4

Item: CC(=O)OC12COC1CC(O)C1(C)C(=O)C(O)C3=C(C)C(OC(=O)C(O)C(NC(=O)OC(C)(C)C)c4ccccc4)CC(O)(C(OC(=O)c4ccccc4)C21)C3(C)C (stereo not given) + C=CC(=O)N1CCN(c2nc(=O)n(-c3c(C)ccnc3C(C)C)c3nc(-c4c(O)cccc4F)c(F)cc23)C(C)C1 Test system: KRAS patient-derived spheroids with HUVEC/MSC, viability Read-out: viability, T/C Value: ?
21.9

Field: viability, T/C (KRAS patient-derived spheroids with HUVEC/MSC, viability). Entry: CC(=O)Nc1cccc(-n2c(=O)n(C3CC3)c(=O)c3c(Nc4ccc(I)cc4F)n(C)c(=O)c(C)c32)c1 + CC1OCC2(CCN(c3cnc(Sc4ccnc(N)c4Cl)c(N)n3)CC2)C1N
13.6

Which measured viability, T/C belongs to CC1(C)CCC(CN2CCN(c3ccc(C(=O)NS(=O)(=O)c4ccc(NCC5CCOCC5)c([N+](=O)[O-])c4)c(Oc4cnc5[nH]ccc5c4)c3)CC2)=C(c2ccc(Cl)cc2)C1 + COc1cc2nc(C)nc(NC(C)c3cc(N)cc(C(F)(F)F)c3)c2cc1OC1CCOC1 , tested on KRAS patient-derived spheroids with HUVEC/MSC, viability?
39.2
